Rule: glass transition temperature below 200 °C gives Yes. Equal to or above 200 °C gives No.

# count of solved cases: 5
INSERT INTO measurements (molecule, class_assignment) VALUES
  ('*CCN(*)C(C)=O (repeat unit)', 'Yes'),
  ('*CCOc1ccc(/C=C2\CC/C(=C\c3ccc(OCCOP(=O)(O*)OC)c(OC)c3)C2=O)cc1OC (repeat unit)', 'Yes'),
  ('*Nc1ccc(NC(=O)c2ccc(NC(=O)CCCCCCCCC(=O)Nc3ccc(C(*)=O)cc3)cc2)cc1C(=O)OCCCCCCCCCCCC (repeat unit)', 'No'),
  ('*c1ccc2c(c1)C(=O)N(c1ccc(C(C)(C)c3ccc(N4C(=O)c5ccc(C(*)(C(F)(F)F)C(F)(F)F)cc5C4=O)cc3)cc1)C2=O (repeat unit)', 'No'),
  ('*C(=O)Nc1ccc(-c2ccc(NC(=O)c3ccc4c(c3)C(=O)N(c3c(C)cc(C)c(N5C(=O)c6ccc(*)cc6C5=O)c3C)C4=O)cc2C)c(C)c1 (repeat unit)', 'No');

Ask: # TODO verify glass transition temperature < 200 °C strictly for this molecule: */C=C/c1ccc2c(c1)Sc1cc(*)ccc1N2c1ccc(OCCCCCCCCCCCC)cc1 (repeat unit)
Reply: Yes

====

observation.type: glass transition temperature (°C)
# output: bare number, implied unit °C

See these solved cases before continuing.
INSERT INTO measurements (molecule, quantity_unit, value_reported) VALUES
  ('*CC(*)(C)C(=O)OC1(C)CCCN(c2ccc(/N=N/c3ccc(/C=C(\C#N)S(C)(=O)=O)cc3)cc2)C1 (repeat unit)', '°C', 196.00),
  ('*c1ccc(Oc2ccc(Oc3ccc(Oc4ccc(N5C(=O)C6CCC(C7CCC8C(=O)N(*)C(=O)C8C7)CC6C5=O)cc4)cc3)cc2)cc1 (repeat unit)', '°C', 217.00);

Ask: Which glass transition temperature is listed for *c1ccc(Oc2ccc(C(=O)c3ccc4cc(C(=O)c5ccc(Oc6ccc(-c7nc(-c8ccccc8)[nH]c7*)cc6)cc5)ccc4c3)cc2)cc1 (repeat unit) ?
Reply: 248.00

====

As shown below, each of these compounds has a reported glass transition temperature value.
# output: bare number, implied unit °C

See these solved cases before continuing.
INSERT INTO measurements (compound, observation_type, quantity_unit, value_reported) VALUES
  ('*OCC(F)(F)C(F)(F)C(F)(F)COc1nc(F)nc(*)c1F (repeat unit)', 'glass transition temperature', '°C', 0.00),
  ('*c1ccc(Oc2ccc(N3C(=O)c4ccc(S(=O)(=O)c5ccc6c(c5)C(=O)N(*)C6=O)cc4C3=O)cc2)cc1 (repeat unit)', 'glass transition temperature', '°C', 283.50),
  ('*c1c(C)cc(C(c2cc(C(F)(F)F)cc(C(F)(F)F)c2)c2cc(C)c(N3C(=O)c4ccc(Oc5ccc6c(c5)C(=O)N(*)C6=O)cc4C3=O)c(C)c2)cc1C (repeat unit)', 'glass transition temperature', '°C', 281.90),
  ('*/C=C/C1CC(*)C(C(=O)OCCCCCCCCOc2ccc(/C=C/c3ccc([N+](=O)[O-])cc3)cc2)C1 (repeat unit)', 'glass transition temperature', '°C', 51.00),
  ('*CCOCCOCCOC(=O)C1CCC(C(=O)O*)CC1 (repeat unit)', 'glass transition temperature', '°C', -25.00),
  ('*CC(*)(C)C(=O)OCCOC (repeat unit)', 'glass transition temperature', '°C', 24.00);

Ask: Which glass transition temperature is listed for *CCOCCOCCOc1ccc(/C=C/c2cc(OC)c(/C=C/c3ccc(O*)c4ccccc34)cc2OC)c2ccccc12 (repeat unit) ?
Reply: 79.50

Ask: Which glass transition temperature is listed for *c1cc(Br)c(-c2c(Br)cc(N3C(=O)c4ccc(-c5ccc6c(c5)C(=O)N(*)C6=O)cc4C3=O)cc2C(=O)OCCCCCCCCCC)c(C(=O)OCCCCCCCCCC)c1 (repeat unit) ?
Reply: 116.00
